assayedTarget: αvβ1 (Homo sapiens, UniProt P05556+P06756)
Sequence (P06756 31-992 limits assumed): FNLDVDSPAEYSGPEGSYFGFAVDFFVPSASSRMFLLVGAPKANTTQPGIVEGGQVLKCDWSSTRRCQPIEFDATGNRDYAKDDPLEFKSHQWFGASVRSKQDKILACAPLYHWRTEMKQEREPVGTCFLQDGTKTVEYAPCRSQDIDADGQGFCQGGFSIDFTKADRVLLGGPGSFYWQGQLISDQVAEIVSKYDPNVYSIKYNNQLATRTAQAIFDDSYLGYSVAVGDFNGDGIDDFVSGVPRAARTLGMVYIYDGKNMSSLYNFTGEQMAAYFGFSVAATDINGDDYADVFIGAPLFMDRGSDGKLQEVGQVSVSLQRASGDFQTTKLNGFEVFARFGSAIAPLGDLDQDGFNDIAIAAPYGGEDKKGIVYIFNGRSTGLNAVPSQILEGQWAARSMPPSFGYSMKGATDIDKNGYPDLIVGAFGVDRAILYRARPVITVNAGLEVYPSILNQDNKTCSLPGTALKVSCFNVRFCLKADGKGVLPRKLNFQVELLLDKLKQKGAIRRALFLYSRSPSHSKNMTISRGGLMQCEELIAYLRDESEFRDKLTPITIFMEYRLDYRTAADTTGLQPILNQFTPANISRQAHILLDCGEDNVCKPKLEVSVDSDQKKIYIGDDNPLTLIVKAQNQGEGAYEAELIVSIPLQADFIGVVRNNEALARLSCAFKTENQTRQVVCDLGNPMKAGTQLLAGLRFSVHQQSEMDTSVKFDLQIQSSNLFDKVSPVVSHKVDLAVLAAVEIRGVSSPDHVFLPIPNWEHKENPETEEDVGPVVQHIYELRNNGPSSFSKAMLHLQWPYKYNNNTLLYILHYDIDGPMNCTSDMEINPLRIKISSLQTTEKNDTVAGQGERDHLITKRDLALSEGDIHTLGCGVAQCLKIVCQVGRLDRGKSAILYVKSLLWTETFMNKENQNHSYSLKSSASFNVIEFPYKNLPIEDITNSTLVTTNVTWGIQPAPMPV
Sequence (P05556 21-728 limits assumed): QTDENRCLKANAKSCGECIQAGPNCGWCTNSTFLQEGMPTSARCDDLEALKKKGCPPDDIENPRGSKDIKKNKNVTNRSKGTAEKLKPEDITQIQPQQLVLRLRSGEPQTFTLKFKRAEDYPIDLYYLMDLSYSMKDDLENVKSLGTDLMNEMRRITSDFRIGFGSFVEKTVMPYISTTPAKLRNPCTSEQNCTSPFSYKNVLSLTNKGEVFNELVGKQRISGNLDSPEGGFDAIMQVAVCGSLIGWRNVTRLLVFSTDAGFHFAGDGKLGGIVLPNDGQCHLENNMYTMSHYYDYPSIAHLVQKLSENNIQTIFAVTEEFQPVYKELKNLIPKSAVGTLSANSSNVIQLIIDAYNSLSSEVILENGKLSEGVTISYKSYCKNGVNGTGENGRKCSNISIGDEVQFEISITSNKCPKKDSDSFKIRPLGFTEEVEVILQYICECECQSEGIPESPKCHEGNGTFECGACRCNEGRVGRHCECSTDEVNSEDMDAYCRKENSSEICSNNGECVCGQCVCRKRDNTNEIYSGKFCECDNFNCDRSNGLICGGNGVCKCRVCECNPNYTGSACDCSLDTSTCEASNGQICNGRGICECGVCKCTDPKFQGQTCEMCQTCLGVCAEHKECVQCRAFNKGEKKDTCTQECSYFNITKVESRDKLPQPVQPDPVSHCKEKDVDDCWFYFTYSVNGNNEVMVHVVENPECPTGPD
procedureSummary: Solid Phase Integrin αvβ1 Assay
Counter-ions that a name gives are not always drawn.
property: IC50

Known results for molecules:
1) O=C(O)C[C@H](NC(=O)[C@H]1CCCN(CCCCc2ccc3c(n2)NCCC3)C1)c1ccccc1 [Compound 287] ... > 1000 nM
2) O=C(NC[C@@H](C(=O)O)c1ccccc1-c1ccccc1)[C@@H]1CCCN(CCCc2ccc3c(n2)NCCC3)C1 [Compound 340] ... 100 to 1000 nM
3) O=C(O)C[C@H](NC(=O)[C@]1(F)CCCN(CCCc2ccc3c(n2)NCCC3)C1)c1ccccc1 [Compound 555] ... 100 to 1000 nM
4) O=C(NC[C@H](Nc1ncnc2cc(C(F)(F)F)ccc12)C(=O)O)[C@@H]1CCCN(CCCc2ccc3c(n2)NCCC3)C1 [Compound 282, hydrochloride] ... < 100 nM
5) O=C(NC[C@@H](Nc1cccc(C2CC(F)(F)C2)c1)C(=O)O)[C@@H]1CCCN(CCCc2ccc3c(n2)NCCC3)C1 [Compound 589] ... < 100 nM

# input Look up and report IC50, with αvβ1 (Homo sapiens, UniProt P05556+P06756) as system, for O=C(CC[C@H](NC(=O)[C@H]1CCCN1S(=O)(=O)c1ccccc1)C(=O)O)N[C@H]1CCN(CCCCc2ccc3c(n2)NCCC3)C1 [Compound 434]
# output < 100 nM

# input Look up and report IC50, with αvβ1 (Homo sapiens, UniProt P05556+P06756) as system, for CNC(=O)c1cccc(CNC(=O)[C@@H]2CCCC[C@H]2C(=O)N[C@@H](CNC(=O)[C@@H]2CCCN(CCCc3ccc4c(n3)NCCC4)C2)C(=O)O)c1 [Compound 266]
# output < 100 nM

# input Look up and report IC50, with αvβ1 (Homo sapiens, UniProt P05556+P06756) as system, for O=C(O)C[C@H](NC(=O)[C@H]1CCCN(CCCc2ccc3c(n2)NCCC3)C1)c1ccccc1 [Compound 523]
# output 100 to 1000 nM

# input Look up and report IC50, with αvβ1 (Homo sapiens, UniProt P05556+P06756) as system, for O=C(O)C[C@H](NC(=O)[C@@H]1CCCN(CCCc2ccc3c(n2)NCCC3)C1)c1cccc2c1CCO2 [Compound 615]
# output < 100 nM

# input Look up and report IC50, with αvβ1 (Homo sapiens, UniProt P05556+P06756) as system, for O=C(O)C[C@@H](NC(=O)[C@@H]1CCCN(CCCc2ccc3c(n2)NCCC3)C1)c1ccc2c(c1)CCC2 [Compound 201-B, hydrochloride]
# output < 100 nM

# input Look up and report IC50, with αvβ1 (Homo sapiens, UniProt P05556+P06756) as system, for O=C(O)C[C@@H](NC(=O)[C@@H]1CCCN(CCCc2ccc3c(n2)NCCC3)C1)c1cccc2c1CCCO2 [Compound 216-B]
# output > 1000 nM

# input Look up and report IC50, with αvβ1 (Homo sapiens, UniProt P05556+P06756) as system, for O=C(O)C[C@H](NC(=O)[C@@H]1CCCN(CCCc2ccc3c(n2)NCCC3)C1)c1ccc2c(c1)CCCC2 [Compound 204-A]
# output < 100 nM

# input Look up and report IC50, with αvβ1 (Homo sapiens, UniProt P05556+P06756) as system, for O=C(O)C[C@@H](NC(=O)[C@@H]1CCCN(CCCc2ccc3c(n2)NCCC3)C1)c1cnc2ccccc2c1 [Compound 413]
# output < 100 nM

# input Look up and report IC50, with αvβ1 (Homo sapiens, UniProt P05556+P06756) as system, for O=C(O)C[C@H](NC(=O)[C@@H]1CN(CCCc2ccc3c(n2)NCCC3)CC(F)(F)C1)c1ccccc1 [Compound 291-A]
# output 100 to 1000 nM

# input Look up and report IC50, with αvβ1 (Homo sapiens, UniProt P05556+P06756) as system, for CC1(C)CN(c2cc([C@H](CO[C@@H]3CCCN(CCCc4ccc5c(n4)NCCC5)C3)CC(=O)O)ccc2Cl)CCO1 [Compound 648]
# output 100 to 1000 nM

# input Look up and report IC50, with αvβ1 (Homo sapiens, UniProt P05556+P06756) as system, for O=C(O)CC(CC(=O)N[C@H]1CCN(C(=O)CCCc2ccc3c(n2)NCCC3)C1)c1ccccc1 (stereo partly drawn) [Compound 520]
# output < 100 nM

# input Look up and report IC50, with αvβ1 (Homo sapiens, UniProt P05556+P06756) as system, for C[C@H]1C[C@@H](C(=O)NC[C@@H](C(=O)O)c2ccc3ccccc3c2)CN(CCCc2ccc3c(n2)NCCC3)C1 [Compound 645]
# output 100 to 1000 nM

# input Look up and report IC50, with αvβ1 (Homo sapiens, UniProt P05556+P06756) as system, for O=C(O)C[C@@H](CO[C@@H]1CCCN(CCCc2ccc3c(n2)NCCC3)C1)c1cccc([C@H]2CCOC2)c1 [Compound 507]
# output < 100 nM

# input Look up and report IC50, with αvβ1 (Homo sapiens, UniProt P05556+P06756) as system, for CC1(C)COCCN1c1cccc([C@@H](CNC(=O)[C@@H]2CCCN(CCCc3ccc4c(n3)NCCC4)C2)C(=O)O)c1 [Compound 597]
# output < 100 nM

# input Look up and report IC50, with αvβ1 (Homo sapiens, UniProt P05556+P06756) as system, for O=C(N[C@@H](CNC(=O)[C@@H]1CCCN(CCCc2ccc3c(n2)NCCC3)C1)C(=O)O)c1cccc2c1CCC2 [Compound 549]
# output < 100 nM

# input Look up and report IC50, with αvβ1 (Homo sapiens, UniProt P05556+P06756) as system, for O=C(NC[C@@H](C(=O)O)c1ccccc1C1CC1)[C@@H]1CCCN(CCCc2ccc3c(n2)NCCC3)C1 [Compound 260-B]
# output 100 to 1000 nM

====

assayedTarget: αvβ1 (Homo sapiens, UniProt P05556+P06756)
procedureSummary: Solid Phase Integrin αvβ1 Assay
pIC50: −log10 of the molar value.
The compounds listed here are annotated with their pIC50.

Known results for compounds:
1) O=C(NC[C@H](NC(=O)[C@@H]1CCCC[C@H]1C(=O)N1CCCC1)C(=O)O)[C@@H]1CCCN(CCCc2ccc3c(n2)NCCC3)C1 [Compound 264] ... > 7.00
2) O=C(O)[C@@H](CO[C@@H]1CCCN(CCCCc2ccc3c(n2)NCCC3)C1)Nc1ncnc2ccccc12 [Compound 410] ... < 6.00
3) O=C(O)[C@@H](c1ccccc1)[C@@H](O)CO[C@@H]1CCCN(CCCc2ccc3c(n2)NCCC3)C1 [Compound 608] ... < 6.00
4) O=C(O)[C@H](CO[C@@H]1CCCN(CCCc2ccc3c(n2)NCCC3)C1)c1ccccc1 [Compound 350] ... < 6.00
5) O=C(CC[C@@H](NC(=O)[C@@H]1CCCN1S(=O)(=O)c1ccccc1)C(=O)O)N[C@H]1CCN(CCCCc2ccc3c(n2)NCCC3)C1 [Compound 437] ... > 7.00

# input Report pIC50 for C[C@@H]1C[C@@H](C(=O)N[C@@H](CC(=O)O)c2ccccc2)CN(CCCc2ccc3c(n2)NCCC3)C1 [Compound 553]
# output 6.00 to 7.00

# input Report pIC50 for O=C(CC[C@H](NC(=O)[C@@H]1CCCN1S(=O)(=O)c1ccccc1)C(=O)O)N[C@H]1CCN(CCCCc2ccc3c(n2)NCCC3)C1 [Compound 435]
# output > 7.00

# input Report pIC50 for O=C(O)C[C@@H](NC(=O)[C@@H]1CCCN(CCCc2ccc3c(n2)NCCC3)C1)c1ccccc1C1CC1 [Compound 345]
# output < 6.00

# input Report pIC50 for O=C(O)[C@@](O)(CO[C@@H]1CCCN(CCCc2ccc3c(n2)NCCC3)C1)c1ccccc1 [Compound 453]
# output < 6.00

# input Report pIC50 for O=C(O)C[C@H](CO[C@@H]1CCCN(CCCc2ccc3c(n2)NCCC3)C1)c1ccccc1-c1ccccc1 [Compound 460]
# output < 6.00

# input Report pIC50 for O=C(O)[C@@H](CO[C@@H]1CCCN(CCCc2ccc3c(n2)NCCC3)C1)Nc1ncnc2ccccc12 [Compound 408]
# output < 6.00

# input Report pIC50 for O=C(O)[C@@](O)(CO[C@@H]1CCCN(Cc2ccc3c(n2)NCCC3)C1)c1ccccc1 [Compound 477]
# output < 6.00

====

assayedTarget: αvβ6 (Homo sapiens, UniProt P06756+P18564)
Sequence (P06756 31-992 limits assumed): as the sequence (P06756 31-992 limits assumed) above
Sequence (P18564 22-707 limits assumed): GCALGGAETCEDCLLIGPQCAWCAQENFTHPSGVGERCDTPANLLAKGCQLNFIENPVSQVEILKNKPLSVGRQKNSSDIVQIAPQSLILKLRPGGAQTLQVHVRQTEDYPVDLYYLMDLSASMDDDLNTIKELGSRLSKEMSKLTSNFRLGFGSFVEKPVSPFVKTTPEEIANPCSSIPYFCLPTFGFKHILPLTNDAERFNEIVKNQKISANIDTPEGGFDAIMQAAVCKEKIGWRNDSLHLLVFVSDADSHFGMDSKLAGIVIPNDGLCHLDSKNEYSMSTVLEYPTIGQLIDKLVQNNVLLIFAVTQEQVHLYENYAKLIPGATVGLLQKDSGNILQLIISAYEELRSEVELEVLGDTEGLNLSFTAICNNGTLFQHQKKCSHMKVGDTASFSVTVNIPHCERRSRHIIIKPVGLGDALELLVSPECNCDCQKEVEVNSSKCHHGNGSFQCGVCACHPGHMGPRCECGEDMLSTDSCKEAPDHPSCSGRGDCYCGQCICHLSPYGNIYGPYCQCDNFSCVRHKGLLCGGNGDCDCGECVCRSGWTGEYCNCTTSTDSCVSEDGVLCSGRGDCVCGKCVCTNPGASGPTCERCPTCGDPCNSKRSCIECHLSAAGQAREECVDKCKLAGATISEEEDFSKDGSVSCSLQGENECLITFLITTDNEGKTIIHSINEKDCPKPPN
procedureSummary: Solid Phase Integrin αvβ6 Assay
The compounds listed here are annotated with their IC50.

Known results for compounds:
1. O=C(O)[C@@H](CCO[C@@H]1CCCN(Cc2ccc3c(n2)NCCC3)C1)Nc1ncnc2ccccc12 ... > 1000 nM
2. O=C(O)[C@@H](CCO[C@@H]1CCCN(CCCc2ccc3c(n2)NCCC3)C1)Nc1ncnc2ccsc12 ... < 100 nM

# input Report IC50 for "Cc1cc([C@H](CO[C@@H]2CCCN(CCCc3ccc4c(n3)NCCC4)C2)CC(=O)O)cc(N2CCOC(C)(C)C2)c1"
# output 100 to 1000 nM

# input Report IC50 for "O=C(N[C@@H](CNC(=O)[C@@H]1CCCN(CCCc2ccc3c(n2)NCCC3)C1)C(=O)O)c1ccc2c(c1)CCC2"
# output < 100 nM
